MEASUREMENT_PARAMETERS: in ethanol, 288.15 K
MEASURED_ENDPOINT: solubility (mole fraction)

Value of measured solubility (mole fraction) for the entry "Cc1c(N)cccc1C(=O)O" : 0.00373

---

MEASUREMENT_PARAMETERS: in methanol, 318.15 K
MEASURED_ENDPOINT: solubility (mole fraction)
Field format: numeric only.

Value of measured solubility (mole fraction) for the entry "Cc1c(N)cccc1C(=O)O" : 0.0136

---

MEASUREMENT_PARAMETERS: in methanol, 288.15 K
MEASURED_ENDPOINT: solubility (mole fraction)
Field format: numeric only.

Value of measured solubility (mole fraction) for the entry "Cc1c(N)cccc1C(=O)O" : 0.00532

---

MEASUREMENT_PARAMETERS: in water, 328.15 K
MEASURED_ENDPOINT: solubility (mole fraction)
Field format: numeric only.

Value of measured solubility (mole fraction) for the entry "Cc1c(N)cccc1C(=O)O" : 0.00105

---

MEASUREMENT_PARAMETERS: in n-propanol, 308.15 K
MEASURED_ENDPOINT: solubility (mole fraction)
Field format: numeric only.

Value of measured solubility (mole fraction) for the entry "Cc1c(N)cccc1C(=O)O" : 0.00542

---

MEASUREMENT_PARAMETERS: in methyl acetate, 293.15 K
MEASURED_ENDPOINT: solubility (mole fraction)

Value of measured solubility (mole fraction) for the entry "Cc1c(N)cccc1C(=O)O" : 0.00127

---

MEASUREMENT_PARAMETERS: in water, 288.15 K
MEASURED_ENDPOINT: solubility (mole fraction)
Field format: numeric only.

Value of measured solubility (mole fraction) for the entry "Cc1c(N)cccc1C(=O)O" : 0.000581

---

MEASUREMENT_PARAMETERS: in sec-butanol, 308.15 K
MEASURED_ENDPOINT: solubility (mole fraction)
Field format: numeric only.

Value of measured solubility (mole fraction) for the entry "Cc1c(N)cccc1C(=O)O" : 0.00513

---

MEASUREMENT_PARAMETERS: in acetonitrile, 323.15 K
MEASURED_ENDPOINT: solubility (mole fraction)
Field format: numeric only.

Value of measured solubility (mole fraction) for the entry "Cc1c(N)cccc1C(=O)O" : 0.00251

---

MEASUREMENT_PARAMETERS: in methyl acetate, 328.15 K
MEASURED_ENDPOINT: solubility (mole fraction)
Field format: numeric only.

Value of measured solubility (mole fraction) for the entry "Cc1c(N)cccc1C(=O)O" : 0.00571

---

MEASUREMENT_PARAMETERS: in isobutanol, 328.15 K
MEASURED_ENDPOINT: solubility (mole fraction)
Field format: numeric only.

Value of measured solubility (mole fraction) for the entry "Cc1c(N)cccc1C(=O)O" : 0.00839

---

MEASUREMENT_PARAMETERS: in n-butanol, 308.15 K
MEASURED_ENDPOINT: solubility (mole fraction)
Field format: numeric only.

Value of measured solubility (mole fraction) for the entry "Cc1c(N)cccc1C(=O)O" : 0.00535

---

MEASUREMENT_PARAMETERS: in sec-butanol, 323.15 K
MEASURED_ENDPOINT: solubility (mole fraction)

Value of measured solubility (mole fraction) for the entry "Cc1c(N)cccc1C(=O)O" : 0.0111

---

MEASUREMENT_PARAMETERS: in water, 313.15 K
MEASURED_ENDPOINT: solubility (mole fraction)
Field format: numeric only.

Value of measured solubility (mole fraction) for the entry "Cc1c(N)cccc1C(=O)O" : 0.00079
